# procedure details: NCI Yeast Anticancer Drug Screen. Data for the cln2 rad14 strain (AID 165)
# experimental context: S. cerevisiae cln2 rad14 strain, at 50.0 µM
# Method: Growth inhibition of yeast strains with defined genetic alterations is measured as a screen for potential anti-cancer activity. Selected strains with alterations in DNA damage repair or cell cycle control were exposed to compounds and growth inhibition was measured relative to vehicle treated controls. The strain used in this assay is cln2 rad14
Compounds without any hit were thinned out: in the full panel of roughly 79,000, 15% have a hit. Calls of active or inactive are those of the source. Cut-off read from the data, not from the text of the source: active = growth inhibition above about 70%; inactive = the rest.
Could you please pick one outcome from this set? active, inactive

These solved cases illustrate the format of a correct answer.
Nc1nc(N)c2nc3c(nc2n1)CCCC3    inactive
Nc1[nH]c(=S)[nH]c(=O)c1NS(=O)(=O)c1cccc([N+](=O)[O-])c1    inactive
N#CSC1C=CS(=O)(=O)C1 (stereo unspecified)    inactive
CN(C)CCN(C=O)CCN(C)C    inactive
Cc1ccc(Nc2ncnc3sc(SCc4ccccc4)nc23)cc1    inactive

Recorded test call requested for C=CC(=O)OCCOCCOC inactive

Recorded test call requested for O=C(NCC1=NCCN1)c1ccccc1 inactive

Recorded test call requested for Cc1cccc2nc(-c3ccccn3)n(CCc3ccccn3)c12 inactive

Recorded test call requested for Cc1cc2c(cc1C)NC(C)CC(=O)N2 (stereo unspecified) inactive

Recorded test call requested for CC(=O)c1ccccc1NC(=O)C(=O)C(C(=O)c1ccc2ccccc2c1)C1OC(=O)c2ccccc21 (stereo unspecified) inactive

Recorded test call requested for O=C1NC2(CCCCC2)N=C2C(Cl)CCCC12Cl (stereo unspecified) inactive

Recorded test call requested for OCC1OC(O)C(CO)OC1O (stereo unspecified) inactive

Recorded test call requested for CCOC(=O)C1/C(=N\N=C2\c3c(nnp3N(CCOS(C)(=O)=O)CCOS(C)(=O)=O)C(C(=O)OCC)C(c3ccc(OC(C)=O)cc3)C2C(=O)OCC)c2c(nnp2N(CCOS(C)(=O)=O)CCOS(C)(=O)=O)C(C(=O)OCC)C1c1ccc(OC(C)=O)cc1 (stereo unspecified) inactive

Recorded test call requested for CC(C)(C)CC(C)(C)c1c(O)cc(O)cc1Cl active

Recorded test call requested for COc1ccc(C[C@@H]2Cc3cc(OC)c(OC)cc3CN2C)cc1 inactive

Recorded test call requested for CN(C)Cc1cc(N=Nc2ccccc2Cl)cc(CN(C)C)c1O inactive

Recorded test call requested for CN1CC=C(C#CC(C)(C)O)CC1 inactive

Recorded test call requested for CCOC(=O)CNC=O inactive

Recorded test call requested for Cc1ccc2sc3cc(=O)cc(C)c-3nc2c1 inactive

Recorded test call requested for CC1CC(C[N+](=O)[O-])CC2(C1)OCCO2 (stereo unspecified) inactive
